tested on: IHNV (RtPy91 strain); test: in vitro; conditions: fathead minnow
reportedEndpoint: selectivity ratio at 96 h
Give your answer as a number; write no unit.

Form: compound = NC(=O)c1ncn([C@@H]2O[C@H](CO)[C@@H](O)[C@H]2O)n1 [Ribavirin] ; selectivity ratio at 96 h = 1750

* * *

system: IPNV (VR299 strain); test: in vitro; conditions: Chinook salmon
reportedEndpoint: selectivity ratio at 96 h
Give your answer as a number; write no unit.

// assay IPNV (VR299 strain), entry NC(=O)c1ncn([C@@H]2O[C@H](CO)[C@@H](O)[C@H]2O)n1 , selectivity ratio at 96 h value = 162

All values here come from patent US20250041382A1.
